- measured target: CDK12 (nuclear staining in CAL-120 cells) (Homo sapiens, UniProt Q9NYV4)
- Construct: endogenous in cells; host or cells: CAL-120 human breast cancer cells (DSMZ ACC 459)
- Sequence (Q9NYV4 whole entry): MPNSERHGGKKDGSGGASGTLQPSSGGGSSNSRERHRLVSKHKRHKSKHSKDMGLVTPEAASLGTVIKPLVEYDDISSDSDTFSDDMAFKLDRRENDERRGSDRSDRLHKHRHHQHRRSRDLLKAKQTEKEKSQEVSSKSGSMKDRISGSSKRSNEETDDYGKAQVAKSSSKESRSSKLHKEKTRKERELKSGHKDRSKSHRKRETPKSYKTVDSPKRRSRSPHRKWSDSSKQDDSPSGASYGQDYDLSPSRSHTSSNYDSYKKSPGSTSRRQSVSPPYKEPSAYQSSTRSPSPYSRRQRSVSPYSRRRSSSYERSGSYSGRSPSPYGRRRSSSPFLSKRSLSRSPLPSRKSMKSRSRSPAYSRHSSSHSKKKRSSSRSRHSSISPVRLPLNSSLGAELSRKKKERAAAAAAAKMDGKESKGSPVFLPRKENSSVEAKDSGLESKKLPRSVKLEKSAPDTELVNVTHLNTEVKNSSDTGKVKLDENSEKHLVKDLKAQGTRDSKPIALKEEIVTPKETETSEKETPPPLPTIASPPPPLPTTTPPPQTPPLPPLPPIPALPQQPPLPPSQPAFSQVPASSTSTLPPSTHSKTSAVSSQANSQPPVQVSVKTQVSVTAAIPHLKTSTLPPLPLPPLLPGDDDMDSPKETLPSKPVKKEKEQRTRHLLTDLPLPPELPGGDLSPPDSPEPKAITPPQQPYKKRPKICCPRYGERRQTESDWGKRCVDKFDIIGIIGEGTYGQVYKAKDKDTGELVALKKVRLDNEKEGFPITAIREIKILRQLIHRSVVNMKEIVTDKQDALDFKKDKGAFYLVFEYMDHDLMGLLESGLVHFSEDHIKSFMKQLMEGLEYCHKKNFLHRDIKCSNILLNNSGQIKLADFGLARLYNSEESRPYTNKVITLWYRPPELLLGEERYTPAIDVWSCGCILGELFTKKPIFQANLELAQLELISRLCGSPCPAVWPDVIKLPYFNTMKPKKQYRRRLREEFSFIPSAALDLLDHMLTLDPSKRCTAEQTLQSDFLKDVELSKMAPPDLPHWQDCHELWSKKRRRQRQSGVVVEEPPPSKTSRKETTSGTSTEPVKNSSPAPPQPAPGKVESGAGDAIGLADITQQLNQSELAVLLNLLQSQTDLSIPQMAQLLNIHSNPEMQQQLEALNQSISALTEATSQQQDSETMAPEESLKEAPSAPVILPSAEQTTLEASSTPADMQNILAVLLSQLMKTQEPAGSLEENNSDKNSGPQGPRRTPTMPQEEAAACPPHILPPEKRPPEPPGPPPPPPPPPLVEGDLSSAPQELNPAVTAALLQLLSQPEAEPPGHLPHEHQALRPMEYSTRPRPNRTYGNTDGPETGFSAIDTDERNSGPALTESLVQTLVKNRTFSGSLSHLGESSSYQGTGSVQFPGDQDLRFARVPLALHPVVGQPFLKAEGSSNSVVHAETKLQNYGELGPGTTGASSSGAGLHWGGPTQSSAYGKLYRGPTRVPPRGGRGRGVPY
- Sequence (O75909 whole entry partner): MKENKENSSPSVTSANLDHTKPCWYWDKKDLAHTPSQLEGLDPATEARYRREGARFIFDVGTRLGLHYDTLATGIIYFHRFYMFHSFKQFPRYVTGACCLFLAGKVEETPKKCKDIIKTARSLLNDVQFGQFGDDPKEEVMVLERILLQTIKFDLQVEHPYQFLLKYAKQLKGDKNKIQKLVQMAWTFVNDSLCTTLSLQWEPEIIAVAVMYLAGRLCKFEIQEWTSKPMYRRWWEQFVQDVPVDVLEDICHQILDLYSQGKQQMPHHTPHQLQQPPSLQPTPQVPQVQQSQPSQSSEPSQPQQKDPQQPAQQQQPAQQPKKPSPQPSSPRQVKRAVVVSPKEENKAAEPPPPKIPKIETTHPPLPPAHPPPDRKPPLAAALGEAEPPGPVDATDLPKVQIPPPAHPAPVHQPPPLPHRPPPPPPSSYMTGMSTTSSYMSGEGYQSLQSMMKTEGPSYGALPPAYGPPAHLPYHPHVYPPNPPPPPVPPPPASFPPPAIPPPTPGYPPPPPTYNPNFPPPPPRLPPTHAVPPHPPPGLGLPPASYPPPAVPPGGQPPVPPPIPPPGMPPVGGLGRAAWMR
- experiment notes: CDK12 nuclear protein level: immunofluorescence/high content analysis (CAL-120)
- Format: cell-based
- applied conditions: ratio of IC50 CDK12 high ATP kinase assay to DC50 CDK12 degradation (IF, CAL-120)
- Method: In the context of the present invention, the term “DC50 CDK12” refers to the DC50 values obtained according to the assay described in this section (7) herein below, i.e. the DC50 values for the degradation of CDK12. Plates are then incubated for 24 h at 37° C. in an humidified incubator and fixed with 4% PFA for 10 min. […] Nuclear and cytoplasmic intensity as well as the nuclear/cytoplasmic intensity ratio is determined by automated image analysis using custom generated scripts (MetaXpress). […]
readout: (IC50 CDK12 high ATP) to (Degradation DC50 CDK12) ratio

Qu. // lookup (IC50 CDK12 high ATP) to (Degradation DC50 CDK12) ratio for CC1(O)CCN(c2nc(NCc3nc4ccccc4[nH]3)n3ncc(Br)c3n2)C1 (single isomer, unassigned) [Example 282]
Ans. >320

Qu. Consider the compound shown here: CN1CC[C@H]2CN(c3nc(NCc4nc5ccccc5[nH]4)n4ncc(Br)c4n3)C[C@H]21 What is its recorded (IC50 CDK12 high ATP) to (Degradation DC50 CDK12) ratio?
Ans. >4361
